- Test system: MS2 coat protein
- assay-remarks: apparent KD of MS2 coat protein; higher = weaker reporter binding
- conditions: Eterna round: R107; input ligand: theophylline 20 uM
quantity-name: apparent KD of MS2 coat protein (nM)
Respond numerically; units are nM and should not be typed.

Check out these entries, answers already filled in.
# sequence-content, system-under-test, apparent KD of MS2 coat protein, nM
measured = [
    ("AGCGGAACGGAAGGGUCCCAAAAUUGUGAUACCAGCCUUGAAUCCGGCCCUUGGCAGCACAUGAGGAUCACCCAUGUACUGCGAU [Laanor]", "MS2 coat protein", 19.2),
    ("CAAUAAGUACCGGUCCUCAGAUCCUCAUGACGAGGACCGGUACGGCCGCCACUCGAAACAUGAGGAUCACCCAUGUAAUAAUAAU [Brourdmod01]", "MS2 coat protein", 31.4),
]

Would you kindly look at the next entry?
apparent KD of MS2 coat protein recorded for this sequence, ACGGAUCGGAAACGAUCCGCGGCGCGGGUGCGAGGACCGGUACGGCCGCCACUCGGGUAACAUGAGGAUCACCCAUGUCCGAUUU [ETA NP+V+V2 #12] , is 101

----------
- System: MS2 coat protein
- assay-remarks: apparent KD of MS2 coat protein; designed switch direction (-1 OFF switch, 1 ON switch): 1; higher = weaker reporter binding
- conditions: input ligand: none
quantity-name: apparent KD of MS2 coat protein
Give the value; after it, write the unit.

# sequence-content, system-under-test, apparent KD of MS2 coat protein
data = [
    ("GAGCUCGUGUGAGGAUAUGCCGCCGUUUCGGCUGCAGAAGGUGCUACGUUACAUGAGGAUCACCCAUGUCUCUGUUGUUUCGUA [salish99_SSNG1_r04_960] (Eterna round: R96, puzzle: Same State NG 1)", "MS2 coat protein", "51.1 nM"),
    ("AACAAUCUAUCUGAGGAUAUCAUGUCAAAGACAUGAGGAUCACCCAUGUACCAGGAAACUGGAUAUGAGAAGGCAGAUAGAUUGA [SS2: 1119] (Eterna round: R96, puzzle: Same State 2)", "MS2 coat protein", "162 nM"),
]

# apparent KD of MS2 coat protein of CAAACCGACACAGGAUAUGGAGCCGACCGGCACAUGAGGAUCACCCAUGUGCUACAGGUAUGUAGCUAGAAGGGUGAAGGUAUC [Eternabot solution 29] (Eterna round: R96, puzzle: Same State NG 2) = 118 nM

The value of apparent KD of MS2 coat protein measured for the sequence AUUAUUUAUGCAGGAUAUGAUUAACAUGAGGAUCACCCAUGUGGUGUUGUGAGUAAGGAGAGUGAUCAGAAGGGCAUUUUUUCU [JMF's solution 55] (Eterna round: R96, puzzle: Same State NG 2) turned out to be 490 nM

AUGGAGACCGGAGGAUAUGGACCAACAAUCGGUCCAGAAGGCUGCCCAUGGUAUACAUGAGGAUCACCCAUGUGGCCGCGGAGA [Eternabot solution 13] (Eterna round: R96, puzzle: Same State NG 1) yielded apparent KD of MS2 coat protein of 102 nM

----------
- Tested on: MS2 coat protein
- assay-remarks: apparent KD of MS2 coat protein, switch ON state; designed switch direction (-1 OFF switch, 1 ON switch): 1; higher = weaker reporter binding
- conditions: FMN input: 0 or 200 uM; Eterna round: R93 (includes R88 designs)
quantity-name: apparent KD of MS2 coat protein
A complete answer gives the number and then names the unit.

Below: 10 sequences and their reported apparent KD of MS2 coat protein.
# sequence-content, apparent KD of MS2 coat protein
data = [
    ("AGGAGACAUGAGGAUCACCCAUGUGAGAAGAGGCGAGGAUAUCGAAAAAAAAAAAGAAAACGAGAAGGCGCGAGAA [salish99-SS1-014]", "244 nM"),
    ("AAAAUACAUGAGGAUCACCCAUGUCCGACAAAUCAAGGAUAUGAUAGCCAAACCAAGCUGUUAGAAGGUGAAAGAA [Edengere]", "499 nM"),
    ("AUGAAAGUAACGCAGGAUAUCCAGGAUACAACAUGAGGAUCACCCAUGUACAUACGAACGUAUAAGGAGAAGGGUGGAUGAUCUUC [ss2-3]", "56.7 nM"),
    ("GAGAAACAUGAGGAUCACCCAUGUAGAAAUAUGGGAGGAUAUACAAAGACGAAAGUCAAAGUAGAAGGCCUAGAAG [77%, Mat - Mod of Eli - With 2 more G's]", "21.9 nM"),
    ("GUGGCCUAGGCACAGGAUAUGUUGCUCGUAACAUGAGGAUCACCCAUGUGCCUAUGAGAUUUAAUGCAGAAGGGUGCACGCCACG [Edbeso]", "14.7 nM"),
    ("AAAAAACAUGAGGAUCACCCAUGUAAAAAAAUGGGAGGAUAUACAAAAAAAAAAAAAAAAGUAGAAGGCCUGAAAA [same state 10]", "62.3 nM"),
    ("AAUCCAACUAGUCAGGAUAUCAGGCGUAAGACAUGAGGAUCACCCAUGUCCUUAGUACAAGUAACUGAGAAGGGACAGGGCGACC [JR_SS002_Sub410]", "74.9 nM"),
    ("GAAAAACAUGAGGAUCACCCAUGUGAGAAUAUGGGAGGAUAUACAAGGACGAAAGUCAAGGUAGAAGGCCUAAAAG [Mat - Same State 1 - Eli mod - 28]", "34.3 nM"),
    ("CAUCACGCGCCUAAGGAUAUGUCUCACAAGACAUGAGGAUCACCCAUGUAGAAUAAAUAAAUGAUGCAGAAGGUGGAGCGCAUGC [Gerixeza]", "134 nM"),
    ("AGCACGUGAUUGGAGGAUAUGUUGUAAGCAACAUGAGGAUCACCCAUGUCUGAGGCUGAAAAGCAGCAGAAGGCCGAUACAACCA [SS2-1.3]", "37.2 nM"),
]

As a next step, examine the sequence that follows.
For reference, reported apparent KD of MS2 coat protein for AAUGAACAUGAGGAUCACCCAUGUUCUAAUAGUUGAGGAUAUGUGGGUGAAAAUAGCACGGCAGAAGGCGAGUGUA [SameState1 Malc#19] stands at 101 nM

Taken from the supplement of paper PMC9170038.
